Population Normal (%) overview
# Test system: Fibroblast
# Protocol details: Multiplex assay against human fibroblast
# Format: toxicity, cell-based
# Experimental conditions: 12 h, 10 µM, compound concentration 10 uM, replicate 2
// note: answer is a bare numeric in %

The following compounds have reported results that may help.
CC(C)C[C@H](CO)Nc1nc(S[C@@H](C)c2ccccc2)nc2nc(N)sc12; 94
COc1cc(OC2CCN(C(C)=O)CC2)ccc1C(=O)N1CCC(N2C(=O)OCc3ccccc32)CC1; 93
Cc1cc(-c2ccc3c(c2)CC[C@H]3N2CC3(CCN(C(=O)Cc4cn5cc(C)sc5n4)CC3)C2)ncn1; 98

Summary for this compound, O=c1ccc2ccc(OCCCCN3CCN(c4cccc5sccc45)CC3)cc2[nH]1 : Population Normal (%) is 88

---

# Test system: HEK-293T
# Protocol details: Multiplex assay against HEK293T
# Format: toxicity, cell-based
# Experimental conditions: human, 12 h, 1 µM, compound concentration 1 uM, replicate 2
Population Tubulin-Different-Phenotype (%) overview
// note: answer is a bare numeric in %

The following molecules have reported results that may help.
C[C@H](NC(=O)CNC(=O)c1cccc(Cl)c1)c1ccccc1; 17
Cn1cc(C(=O)OCC2CCN(CCNS(C)(=O)=O)CC2)c2ccccc21; 28
CN1CCN(c2ccc(Nc3c4ccccc4nc4ccccc34)cc2)CC1.Cl.Cl.O; 20

Summary for this molecule, CN(C)C(=O)Cn1cc(-c2ccc(-c3nnc4ccccn34)cc2)cn1 : Population Tubulin-Different-Phenotype (%) is 27

Summary for this molecule, CN1C[C@H](C(=O)N[C@]2(C)O[C@@]3(O)[C@@H]4CCCN4C(=O)[C@H](Cc4ccccc4)N3C2=O)C[C@@H]2c3cccc4[nH]cc(c34)C[C@H]21.CS(=O)(=O)O [DIHYDROERGOTAMINE MESYLATE] : Population Tubulin-Different-Phenotype (%) is 17

Summary for this molecule, Cc1sc2c(c1C)C(c1ccc(Cl)cc1)=N[C@H](CC(=O)OC(C)(C)C)c1nnc(C)n1-2 : Population Tubulin-Different-Phenotype (%) is 26

Summary for this molecule, S=C(NCCCc1c[nH]cn1)NCCCN(Cc1ccc(Cl)c(Cl)c1)c1ccc(Br)cn1 : Population Tubulin-Different-Phenotype (%) is 35

---

# Tested on: Fibroblast
# Protocol details: Multiplex assay against human fibroblast
# Assay type: toxicity, cell-based
# Experimental conditions: 24 h, 1 µM, compound concentration 1 uM, replicate 2
Non-standard residues stand in square brackets, D forms with d. Residues, ends and D or L forms follow the SMILES beside them.
Response field label takes Fulfilled when Population Mitochondria Different-Phenotype (%) is strictly below 6% and Not fulfilled in all other cases.

CN(C)C(=O)Cn1cc(-c2ccc(-c3nnc4ccccn34)cc2)cn1; Fulfilled
CN1CCN(c2ccc(Nc3c4ccccc4nc4ccccc34)cc2)CC1.Cl.Cl.O; Not fulfilled
COC(c1ccccc1)(c1ccccc1)[C@H](Oc1nc(C)cc(C)n1)C(=O)O [AMBRISENTAN]; Fulfilled
CSc1nc(NC2CCCC2)c([N+](=O)[O-])c(NC2CCCC2)n1 [GS-39783]; Not fulfilled

Say whether its Population Mitochondria Different-Phenotype (%) is strictly beneath 6%. Entry: O=C(O)CCC/C=C\CC1C(O)CC(O)C1/C=C/C(O)COc1cccc(Cl)c1 (configuration not stated) [CLOPROSTENOL]
Fulfilled

Say whether its Population Mitochondria Different-Phenotype (%) is strictly beneath 6%. Entry: CC(C)(C)c1ccc(CSc2cnn(C(C)(C)C)c(=O)c2Cl)cc1 [PYRIDABEN]
Not fulfilled

Say whether its Population Mitochondria Different-Phenotype (%) is strictly beneath 6%. Entry: CC(C)C[C@@H]1NC(=O)[C@@H](C(C)C)NC(=O)[C@@H]2CCCN2C(=O)[C@@H](CC(=O)O)NC(=O)[C@@H](Cc2c[nH]c3ccccc23)NC1=O [BQ-123] (cyclo(L[dW][dD]P[dV]))
Fulfilled
